Answer each item with its documented OD.
# assaySystem: recombinant soluble 1968 H3 HA (A/Aichi/2/1968) (Influenza A virus A/Aichi/2/1968 (H3N2), UniProt P03437 17-530)
# method: ELISA, supernate
Give the value in OD but do not write OD after it.

Fill in: OD of mAb 2O10 (antibody, V domains shown) VH: EVQLVESGGGLVQPGGSLRLSCAASGFTFNSYWMTWVRQAPGKGLEWVANINQDGSEKFFVDSVKGRFTISRDNAKTSLYLQMNSLRVEDTAVYYCAREGAPYDTYYYYYAMDVWGQGTTVTVS VL: QSVLTQPPSVSGAPGQRVTISCTGTSSNIGAGYGVHWYQQLPGAAPKLLVYGNSNRPSGVPDRFSGSKSGTSASLAITGLQAEDEADYYCQSYDISLSGSNVFGTGTKVTVLG is ___
0.077

Any idea what OD was measured for mAb 4A10 (antibody, V domains shown) VH: EVQLVESGGGLVQPGGSLRLSCAASGFSFSSYWMTWVRQAPGKGLEWVANIKQYGSEKYYVDSVKGRFTISRDNAKNSLYLQMNSLRDDDTAVYYCARMGSYLDTYYYHYGMDVWGQGTTVTVS VL: QSVLTQPPSLSGAPGQRVTISCTGSSSNIGADYDVYWYQHLPGTAPKLLMYGDGYRPSGVPDRFSGSKSGTSASLAITGLQAEDEADYYCQSYDSSLSRRVVFGGGTKLTVLG ?
0.072

Consider the binder shown here: mAb 2K11 (antibody, V domains shown) VH: EVQLVESGGGLVQPGGSLRLSCVASTFSLINYWMTWVRQAPGKGLEWVANIKQDGFEKYYVDSVKGRFTISRDNAKNSLYLQMNSLRVEDTAVYYCARQGSYADTYFYHYGMDVWGQGTTVTVS VL: QSALTQPPSVSGAPGQRVTISCTGSSSNIGAGYDAYWYQQLPGTAPKLLIYGNSNRLSGVPDRFSASKSGTSASLAITGLQAEDEADYYCQSYDSSLSIFGGGTKLTVLR What is its recorded OD?
0.08

# query: OD of entry mAb 5J8 (antibody, V domains shown) VH: EVQLVESGPGLVKPSDILSLTCAVSGYSISSNYYWGWIRQPPGKGLEWIGSIYHSGSTYYKPSLESRLGISVDTSKNQFSLKLSFVSAADTAVYYCARHVRSGYPDTAYYFDKWGQGTLVTVS VL: SYVLTQPPSVSVAPGETARISCGGNNIGTKVLHWYQQTPGQAPVLVVYDDSDRPSGIPERFSGSNSGNTATLTISRVEVGDEADYYCQVWDISTDQAVFGGGTKLTVLG
0.078

These measurements were taken from patent US20130289246A1.
